testedSystem: T1, hK1 (human tissue kallikrein 1), recombinant (human, UniProt P06870 25-262)
T1 construct: Expressed in P. pastoris from KLK1 cDNA and purified; enzymatically active; also called KLK1; Recombinant (Pichia) Kallikrein
procedureSummary: SPR
Listing of entries alongside the reported kon.
# unit: M⁻¹ s⁻¹ | format: bare number

query: Consider the binder shown here: M0135-C12 (Fab, V domains shown) VH: EVQLLESGGGLVQPGGSLRLSCAASGFTFSRYHMSWVRQAPGKGLEWVSSIRPSGGSTIYADSVKGRFTISRDNSKNTLYLQMNSLRAEDTAVYYCAREPRRYYYDSSGSYDAFDIWGQGTMVTVSS VL: AQSELTQPPSMSGTPGQRVIISCSGSNSNIGNNFVYWYQQVAGSAPKLLIFRNNQRPSGVPDRFTVSKSGASASLAIGGLRSEDEADYYCAAWDDSLSGVLFGGGTKVTVLG What is its recorded kon?
result: 121000

query: Field entry: M0131-D01 (Fab, V domains shown) VH: EVQLLESGGGLVQPGGSLRLSCAASGFTFSHYNMNWVRQAPGKGLEWVSVIYPSGGQTHYADSVKGRFTISRDNSKNTLYLQMNSLRAEDTAVYYCARRGIWHSFDIWGQGTMVTVSS VL: DIQMTQSPGTLSLSPGERASLSCRASQSVSSNYLSWYQQKPGQAPRLLIYGTSNRASGIPVRFSGSGSGTDFTLTISRLEPEDFAVYYCQQYGGAPLFIFGPGTRVDIKR
result: 311000

query: Field entry: M0110-D11 (Fab, V domains shown) VH: EVQLLESGGGLVQPGGSLRLSCAASGFTFSHYLMYWVRQAPGKGLEWVSRIGPSGGWTKYADSVKGRFTISRDNSKNTLYLQMNSLRAEDTAVYYCARVGVWYGMDVWGQGTTVTVSS VL: AQSELTQPASVSGSPGQSITISCTGTSTDVGGYNYVSWYQKHPGKAPKLMIYDVSNRPSGVSNRFSGSKSGNTASLTISGLQAEDEADYYCSSYTNTITVVFGGGTKLTVLG
result: 210000
